Test: AP1 Signaling Pathway (AID 357);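 also: ME-180 reporter cells stimulated with EGF at its EC50 level; % is scaled to controls: 0 for no effect and ±100 for the full control effect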
Settings: ME-180 (cervical carcinoma) AP-1-bla reporter, EGF-induced, beta-lactamase ratio, 5 h; at 7.69 µM (top of the series) unless noted
Records with an inconclusive call do not appear.
Recorded metric: activity change, negative = inhibition (%)
Give the number; % is assumed, so skip it.

>>> reported_value("COCC(=O)N1CCC2(CCCN(c3ncccn3)C2)CC1")
-5.71

Q) I have this compound here, `c1ccc2c(N3CCOCC3)nc(-c3ccoc3)nc2c1` , and I need its recorded activity change, negative = inhibition.
A) -5.2

Q) I have this compound here, `c1ccc2c(Nc3ccncc3)nc(-c3ccc4c(c3)OCO4)nc2c1` , and I need its recorded activity change, negative = inhibition.
A) 4.72

Q) I have this compound here, `CCNc1ncc2nc(-c3cc(F)cc(F)c3)c(=O)n(C3CC3)c2n1` , and I need its recorded activity change, negative = inhibition.
A) 29.9

Q) I have this compound here, `COc1ccc2[nH]cc(CCNc3ccnc(-c4ccccc4Cl)n3)c2c1` , and I need its recorded activity change, negative = inhibition.
A) -9.46

Q) I have this compound here, `COCCn1c(=O)c(-c2cc(F)cc(F)c2)nc2cnc(N(C)C)nc21` , and I need its recorded activity change, negative = inhibition.
A) 3.27

Values compiled from PubChem BioAssay (NCATS).
